assay text: Phase 1 SAD/MAD study: plasma pharmacokinetics of Compound 1a (LC-MS-MS, noncompartmental analysis)
Assay type: in vivo, human
applied conditions: human, plasma, oral, 360 mg, single dose 360 mg, healthy volunteers, geometric mean; read-out: AUClast
measure: AUC(0-t) (ng·h/mL)
Kindly provide the numeric value in ng·h/mL only, without the unit symbol.

Ask | Return reported AUC(0-t). Input compound: O.O=C([O-])c1nn[nH]c1Oc1ccc(-c2ccc(C3CC(F)(F)C3)cc2)cc1.[Na+] [Compound 1a]
Reply | 83200

====

assay text: Phase 1 SAD/MAD study: plasma pharmacokinetics of Compound 1a (LC-MS-MS, noncompartmental analysis)
Format: in vivo, human
applied conditions: human, plasma, oral, 1000 mg, single dose 1000 mg, healthy volunteers, geometric mean (geometric CV %); read-out: t1/2 (converted)
measure: half-life (min)
Kindly provide the numeric value in min only, without the unit symbol.

Ask | Return reported half-life. Input molecule: O.O=C([O-])c1nn[nH]c1Oc1ccc(-c2ccc(C3CC(F)(F)C3)cc2)cc1.[Na+] [Compound 1a]
Reply | 1680
